Data origin, for the record: ChEMBL document CHEMBL1143777

Tested on: Staphylococcus aureus
test_summary: Antibacterial activity against Staphylococcus aureus by disc diffusion method
Assay type: functional
outcome_measure: MIC (µg/mL)

compound_string=COc1ccc(Br)c(C(=O)NNc2nc(-c3ccc(O)c(O)c3)cs2)c1 uom=µg/mL reported_value=50
compound_string=COc1ccc(Br)c(C(=O)NNc2nc(-c3ccc(O)c(C(N)=O)c3)cs2)c1 uom=µg/mL reported_value=12.5
compound_string=COc1ccc(Br)c(C(=O)NNc2nc(-c3cc4ccccc4oc3=O)cs2)c1 uom=µg/mL reported_value=50
compound_string=COc1ccc(Br)c(C(=O)NNc2nc(-c3cc4cc(Br)ccc4oc3=O)cs2)c1 uom=µg/mL reported_value=50
